Biological target: GST-tagged GDP-loaded KRAS G12V (amino acids 1-169) (Homo sapiens, UniProt P01116, G12V)
Construct: GST-tagged GDP-loaded KRAS G12V (amino acids 1-169)
Sequence (P01116 1-169 isoform P01116-2 G12V): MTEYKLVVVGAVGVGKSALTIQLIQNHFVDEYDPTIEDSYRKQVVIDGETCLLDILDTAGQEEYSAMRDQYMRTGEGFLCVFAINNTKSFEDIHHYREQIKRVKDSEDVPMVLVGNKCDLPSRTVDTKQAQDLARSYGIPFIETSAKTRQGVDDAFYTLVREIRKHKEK
Test: KRAS G12V probe displacement assay (TR-FRET)
Conditions: displacement of biotinylated probe 2 from GDP-loaded KRAS G12V
Each item that follows carries a reported IC50.

- molecule: "Nc1nc2c(-c3c(C(F)(F)F)cc4c(N[C@H]5C[C@H](CO)C5)nc(OC[C@@]56CCCN5C[C@H](F)C6)nc4c3F)ccc(F)c2s1"
  IC50: "4.1 nM"
- molecule: "N#CCC1CN(c2nc(OC[C@@]34CCCN3C[C@H](F)C4)nc3c(F)c(-c4ccc(F)c5sc(N)nc45)c(C(F)(F)F)cc23)C1"
  IC50: "12 nM"
- molecule: "CC[C@H]1COCCN1c1nc(OC[C@@]23CCCN2C[C@H](F)C3)nc2c(F)c(-c3cc(N)cc(Cl)c3C(F)(F)F)ncc12"
  IC50: "4.4 nM"
- molecule: "Nc1nc2c(-c3c(C(F)(F)F)cc4c(N5CC[C@H](F)C5)nc(OC[C@@]56CCCN5C[C@H](F)C6)nc4c3F)ccc(F)c2s1"
  IC50: "19 nM"
- molecule: "Nc1nc2c(-c3c(C(F)(F)F)cc4c(N5CCCCC5)nc(OC[C@@]56CCCN5C[C@H](F)C6)nc4c3F)ccc(F)c2s1"
  IC50: "30 nM"
- molecule: "N#CC1CCN(c2nc(OC[C@@]34CCCN3C[C@H](F)C4)nc3c(F)c(-c4ccc(F)c5sc(N)nc45)c(C(F)(F)F)cc23)C1 (stereo partly drawn)"
  IC50: "2.1 nM"
